- System: LOX IMVI melanoma
- assay explanation: NCI tumour cell line growth inhibition, 48 h
Field: TGI. Provide a value for each of the molecules that follow.

- molecule: "COC(=O)[C@@H](C)C[C@H](Cc1ccc(F)cc1)NC(=O)c1csc([C@@H](C[C@H](C(C)C)N(C)C(=O)[C@@H](NC(=O)[C@H]2CCCCN2C)C2CC2)OC(C)=O)n1"
  experimental target: "LOX IMVI melanoma"
  reading: "> 25 µM"
- molecule: "Cc1cn(CCCCOC(=O)NC(CCCN=C(N)N)C(=O)O)c(=O)[nH]c1=O (stereo unspecified)"
  experimental target: "LOX IMVI melanoma"
  reading: "> 100 µM"
- molecule: "C/C(=N\\NC(=O)c1ccccc1O)c1c(O)cc(C)oc1=O"
  experimental target: "LOX IMVI melanoma"
  reading: "> 100 µM"
- molecule: "C[C@H](CCC(=O)O)[C@H]1CC[C@H]2[C@@H]3[C@H](O)[C@H](O)[C@@H]4C[C@H](O)CC[C@]4(C)[C@H]3CC[C@]12C"
  experimental target: "LOX IMVI melanoma"
  reading: "> 100 µM"

Hi there! I need TGI for each item below, if you can.
1. COc1nc2c(c(=O)[nH]1)N=C(c1ccccc1)CC(c1ccccc1)N2 (stereo unspecified)
2. OCC#Cc1ccccc1C#Cc1ccc(C#Cc2ccccc2C#CCO)cc1
3. CCOC(=O)c1ccc(NCc2ccc3nc(OC)c(OC)nc3c2)cc1

result:
1: > 100 µM; 2: > 100 µM; 3: > 100 µM

Look up TGI for the entries below, preserving their order.
1. CCCC(=O)Oc1ccc(/C=N/NC(N)=S)nc1
2. CN(CCO)CCC1COc2ccccc2O1 (stereo unspecified)

result:
["> 100 µM", "> 10 µM"]

Please go through the list and note TGI for each molecule.
1. C/C(=N\N)C(CN1CCOCC1)C(c1ccccc1)c1c(O)c2ccccc2oc1=O (stereo unspecified)
2. CC(C)(C)n1[nH]c(=O)n(C(C)(C)C)c1=O

result:
1. > 31.6 µM
2. > 100 µM

* * *

- Tested on: M14 melanoma
- assay explanation: NCI tumour cell line growth inhibition, 48 h
I'd appreciate it if you could supply TGI values for the items below.

Here are 5 compounds. What values of TGI were reported for them?
1. C=C[C@@H]1CCC/C=C/[C@@H]2C[C@H](O)C[C@H]2[C@H](O)/C=C/C(=O)O1
2. O=S(=O)(O)c1ccc(N=Nc2ccc(N=Nc3c(O)ccc4ccc(S(=O)(=O)O)cc34)cc2)cc1
3. Oc1ccc(O)c(-n2cccn2)c1
4. [N-]=[N+]=C1C(=O)C2CC3CC1CC2C3 (stereo unspecified)
5. CCCCCCCCCCNC(=S)OC

result:
> 28.9 µM
> 100 µM
> 100 µM
> 100 µM
> 100 µM

query: What does the record list as TGI for Cc1cc(OP2(=O)NCc3ccncc3O2)ccc1Cl (stereo unspecified) ?
result: > 100 µM

* * *

- Tested on: OVCAR-4 ovarian
- assay explanation: NCI tumour cell line growth inhibition, 48 h
property measured: TGI

Below: 2 compounds and their reported TGI.
- compound: "O=C(O)c1nn(-c2ccc(Cl)cc2)c2c1C(=O)c1ccccc1C2=O"
  TGI: "> 100 µM"
- compound: "Cc1ccc(F)c2[nH]c(-c3ccccc3)cc(=O)c12"
  TGI: "> 100 µM"

Each of the following entries comes with a recorded value; kindly state TGI for each.
1. C=C[C@@H]1CCC/C=C/[C@@H]2C[C@H](O)C[C@H]2[C@H](O)/C=C/C(=O)O1
2. C=C(C)[C@@H]1C/C=C(/COC(C)=O)CC[C@H]2O[C@@]2(C)CC/C=C(\C)CC1
3. C1=C2C3=[N+](CCCC3)CC2Cc2sccc21 (stereo unspecified)
4. COc1ccc(Cc2ccc3[nH]c(=O)cc(C)c3c2)cc1S(=O)(=O)O
5. CC[C@@]1(O)C(=O)OCc2c1cc1n(c2=O)Cc2c-1nc1ccccc1c2/C=N\NC(=O)C(N)Cc1ccc(O)cc1 (stereo partly specified)

result:
["> 94.6 µM", "> 100 µM", "> 100 µM", "> 100 µM", "> 31.6 µM"]

Look at each compound and report its TGI.
1. CCCCCCCCCCCCCC(=O)OCC(CCS(=O)(=O)O[C@H]1CC[C@@]2(C)C(=CC[C@@H]3C2CC[C@]2(C)C(=O)CCC32)C1)OC(=O)CCCCCCCCCCCCC (stereo partly specified)
2. COc1ccc(N[C@H](CS(=O)c2ccc(C)cc2)C(F)(F)F)cc1 (stereo partly specified)
3. O=C1NCN(c2ccccc2)C12CCN(CCCN1CCN(CCOC(c3ccccc3)c3ccccc3)CC1)CC2

result:
1: > 100 µM; 2: > 100 µM; 3: 7.47 µM

For every item below, please supply its TGI.
1. N#C[S-].[Ce+3].c1ccc(-c2ccccn2)nc1.c1ccc(-c2ccccn2)nc1.c1ccc(-c2ccccn2)nc1
2. CCOC(=O)NC(=O)c1cn(CCN(CCO)C(=O)NCCCCCCNC(=O)N(CCO)CCn2cc(C(=O)NC(=O)OCC)c(=O)[nH]c2=O)c(=O)[nH]c1=O
3. COc1ccc2c(c1)c1ccc3c(c1n2C)C(=O)C=CC3=O
4. CC1(C)CC[C@]2(C(=O)NCCNCCN)CC[C@]3(C)C(=CC[C@@H]4[C@@]5(C)CCC(=O)C(C)(C)[C@@H]5CC[C@]43C)[C@@H]2C1
5. CC(=O)O[C@H]1CC[C@@]2(C)C(=CC[C@H]3C(CC#N)[C@@](C)(C#N)CCC32)C1 (stereo partly specified)
6. COc1ccc2nc(N/N=C/c3ccc(C)s3)cc(C)c2c1
7. C/C(=N\N)C(CN1CCOCC1)C(c1ccccc1)c1c(O)c2ccccc2oc1=O (stereo unspecified)
8. CN(CCO)CCC1COc2ccccc2O1 (stereo unspecified)

result:
1. > 100 µM
2. > 100 µM
3. 15.6 µM
4. 3.66 µM
5. > 100 µM
6. 48.7 µM
7. > 100 µM
8. > 10 µM
